- Organism: Homo sapiens
- assay-overview: Inhibition of mRNA splicing of SMN2 exon 7 in GM03813 fibroblasts derived from SMA patient assessed as compound concentration required to increase SMN protein level by 1.5 times after 24 hrs by HTRF assay
readout-label: EC1.5 (nM)

Recorded results for 2 compounds are shown here.
>>> readout_number("Cc1cn2nc(-c3cc(=O)n4cc(N5CCN(C)CC5)ccc4n3)cc2c(C)n1")
160
>>> readout_number("Cc1cn2nc(-c3cc(=O)n4cc(C5CCN(C)CC5)ccc4n3)cc2c(C)n1")
210

[A] COc1ccc(-c2cc(=O)n3cc(N4CCNCC4)ccc3n2)cc1OC
[B] CCc1nc(C)cn2cc(-c3cc4ccc(N5CCNCC5)cc4oc3=O)nc12
Please let me know which one, A or B , has a lower measured EC1.5 value. Respond using the label that marks the chosen record. B
(B: 210 nM, A: 830 nM)

* * *

- Organism: Homo sapiens
- assay-overview: Inhibition of mRNA splicing of SMN2 exon 7 in GM03813 fibroblasts derived from SMA patient assessed as compound concentration required to increase SMN protein level by 1.5 times after 24 hrs by HTRF assay
readout-label: EC1.5 (nM)

Please review the following examples before continuing.
>>> readout_number("Cc1cn2cc(-c3cc(=O)n4cc(N5CCNCC5)ccc4n3)cc(C)c2n1")
60
>>> readout_number("Cc1cn2nc(-c3cc(=O)n4cc(N5CCN(C)CC5)ccc4n3)cc2cn1")
300
>>> readout_number("Cc1cn2cc(-c3cc4ccc(N5CCN(C)CC5)cc4oc3=O)nc2c(C)n1")
31
>>> readout_number("Cc1cn2cc(-c3cc4ccc(N5CCNCC5)cc4oc3=O)nc2c(C)n1")
15
>>> readout_number("Cc1cn2cc(-c3cc4ccc(N5CCNCC5)cc4oc3=O)cc2c(C)n1")
29

[A] Cc1cn2cc(-c3cc4ccc(N5CCN(CCF)[C@@H](C)C5)cc4oc3=O)nc2c(C)n1
[B] Cc1cn2cc(-c3cc4ccc(N5CCN(C)[C@@H](C)C5)cc4oc3=O)nc2c(C)n1
Hey, between A and B which has a smaller measured EC1.5? Response format: the label of the selected entry. B

* * *

- Organism: Homo sapiens
- assay-overview: Inhibition of mRNA splicing of SMN2 exon 7 in GM03813 fibroblasts derived from SMA patient assessed as compound concentration required to increase SMN protein level by 1.5 times after 24 hrs by HTRF assay
EC1.5 overview

Use these answered entries as a reference point.
>>> result("O=c1oc2cc(N3CCNCC3)ccc2cc1-c1ccccc1")
"> 10 µM"
>>> result("O=c1oc2cc(N3CCNCC3)ccc2cc1-c1nc2ccccc2s1")
"> 10 µM"
>>> result("COc1ccc(-c2cn3ccc(N4CCNCC4)cc3nc2=O)cc1OC")
"> 10 µM"

Please give the measured EC1.5 for this molecule: Cc1cc2oc(-c3cc4ccc(N5CCNCC5)cc4oc3=O)cc2c(C)n1 > 10 µM

* * *

Listed next: entries and their corresponding EC1.5.
- Species: Homo sapiens
- assay-overview: Inhibition of mRNA splicing of human SMN2 exon 7 transfected in HEK293H cells assessed as compound concentration required to increase full-length SMN2 mRNA level by 1.5 times after 24 hrs by RT-qPCR analysis relative to GAPDH
- Type: cell-based
Entry rule: numbers only, all in nM.

>>> readout_number("Cc1cn2cc(-c3cc4ccc(N5CCN(CCCF)[C@@H](C)C5)cc4oc3=O)nc2c(C)n1")
19
>>> readout_number("CCc1nc(C)cn2cc(-c3cc4ccc(N5CCNCC5)cc4oc3=O)nc12")
10
>>> readout_number("Cc1cn2nc(-c3cc(=O)n4cc(N5CCN(C)CC5)ccc4n3)cc2c(C)n1")
35

Okay, next one:
Can you share its EC1.5? I mean this compound: Cc1cn2cc(-c3cc4ccc(N5CCN(C)CC5)cc4oc3=O)nc2c(C)n1 18

* * *

- Organism: Homo sapiens
- assay-overview: Inhibition of mRNA splicing of SMN2 exon 7 in GM03813 fibroblasts derived from SMA patient assessed as compound concentration required to increase SMN protein level by 1.5 times after 24 hrs by HTRF assay
readout-label: EC1.5 (nM)

Sample answers from the record:
>>> readout_number("Cc1cn2nc(-c3cc(=O)n4cc(N5CCN6CCC[C@H]6C5)ccc4n3)cc2c(C)n1")
150
>>> readout_number("CCN1CCN(c2ccc3cc(-c4cn5cc(C)nc(C)c5n4)c(=O)oc3c2)C[C@@H]1C")
44
>>> readout_number("Cc1cn2cc(-c3cc4ccc(C5CCN(C)CC5)cc4oc3=O)nc2c(C)n1")
50

[a] Cc1cn2cc(-c3cc4ccc(N5CCN(CCCF)[C@@H](C)C5)cc4oc3=O)nc2c(C)n1
[b] Cc1cn2cc(-c3cc4ccc(CCCN(C)C)cc4oc3=O)nc2c(C)n1
[c] Cc1cn2nc(-c3cc(=O)n4cc(N5CCN(C6CC6)CC5)ccc4n3)cc2c(C)n1
[d] Cc1cn2cc(-c3cc4ccc(N5CCNCC5)cc4oc3=O)nc2cn1
[e] Cc1cn2nc(-c3cc(=O)n4cc(N5CCC(N(C)C)CC5)ccc4n3)cc2c(C)n1
Arrange the 5 compounds from largest to smallest EC1.5. Reply with the item labels sorted in the order that was asked for. c, b, e, a, d

* * *

- Species on record: Homo sapiens
- assay-overview: Inhibition of mRNA splicing of human SMN2 exon 7 transfected in HEK293H cells assessed as compound concentration required to increase full-length SMN2 mRNA level by 1.5 times after 24 hrs by RT-qPCR analysis relative to GAPDH
- Format: cell-based
Readings of EC1.5 for the listed compounds
Reply numerically in nM, unit not repeated.

Worked cases, answers included:
>>> readout_number("Cc1cn2cc(-c3cc4ccc(N5CCN[C@@H](C(C)C)C5)cc4oc3=O)nc2c(C)n1")
23
>>> readout_number("Cc1cn2nc(-c3cc(=O)n4cc(N5CCC(N(C)C)CC5)ccc4n3)cc2c(C)n1")
20
>>> readout_number("Cc1cn2cc(-c3cc4ccc(CCCN(C)C)cc4oc3=O)nc2c(C)n1")
58

Now for the compound whose EC1.5 we want.
What does the record list as EC1.5 for Cc1cn2nc(-c3cc(=O)n4cc(N5CCN(C6CC6)CC5)ccc4n3)cc2c(C)n1 ? 380

* * *

Entries and their measured EC1.5 follow.
- Species: Homo sapiens
- assay-overview: Inhibition of mRNA splicing of SMN2 exon 7 in GM03813 fibroblasts derived from SMA patient assessed as compound concentration required to increase SMN protein level by 1.5 times after 24 hrs by HTRF assay

These recorded examples may help you get a feel for the data.
>>> result("Cc1cn2cc(-c3cc4ccc(N5CCN(C(C)(C)C)CC5)cc4oc3=O)nc2c(C)n1")
"> 10 µM"
>>> result("COc1ccc(-c2cc3ccc(N4CCNCC4)cc3oc2=O)cc1OC")
"> 10 µM"
>>> result("Cc1cn2nc(-c3cc4ccc(C5CCN(C)CC5)cc4oc3=O)cc2c(C)n1")
"> 10 µM"

The record that follows has no EC1.5 shown yet.
Consider the molecule shown here: COc1ccc(-c2cc3ccc(N4CCNCC4)cc3oc2=O)cc1 What is its recorded EC1.5? > 10 µM

* * *

Each item that follows carries a reported EC1.5.
- Species on record: Homo sapiens
- assay-overview: Inhibition of mRNA splicing of human SMN2 exon 7 transfected in HEK293H cells assessed as compound concentration required to increase full-length SMN2 mRNA level by 1.5 times after 24 hrs by RT-qPCR analysis relative to GAPDH
- Format: cell-based
Respond numerically; units are nM and should not be typed.

Below, each entry is followed by its recorded EC1.5 result.
>>> readout_number("Cc1cn2cc(-c3cc4ccc(N5CCN[C@H](C)C5)cc4oc3=O)nc2c(C)n1")
3
>>> readout_number("Cc1cn2nc(-c3cc(=O)n4cc(N5CCN[C@@H](C)C5)ccc4n3)cc2c(C)n1")
19
>>> readout_number("COc1ccc(-c2cc3ccc(N4CCNCC4)cc3c(=O)[nH]2)cc1OC")
1400
>>> readout_number("Cc1cn2cc(-c3cc4ccc(N5CC[C@H]6CNC[C@H]65)cc4oc3=O)nc2c(C)n1")
28
>>> readout_number("Cc1cn2nc(-c3cc(=O)n4cc(N5CCN[C@H](C)C5)ccc4n3)cc2c(C)n1")
11

// switching to the query compound
Give its EC1.5 value. Item: COc1ccc(-c2cc3ccc(N4CCNCC4)nc3oc2=O)cc1OC 8800

Source listed as ChEMBL document CHEMBL4477216.
